- target under test: T1, human melanin concentrating hormone type 2 receptor (MCH-2R) (human, UniProt Q969V1 1-340)
- T1 construct: also called MCH-R2
- T1 sequence (Q969V1 whole entry, form in doubt): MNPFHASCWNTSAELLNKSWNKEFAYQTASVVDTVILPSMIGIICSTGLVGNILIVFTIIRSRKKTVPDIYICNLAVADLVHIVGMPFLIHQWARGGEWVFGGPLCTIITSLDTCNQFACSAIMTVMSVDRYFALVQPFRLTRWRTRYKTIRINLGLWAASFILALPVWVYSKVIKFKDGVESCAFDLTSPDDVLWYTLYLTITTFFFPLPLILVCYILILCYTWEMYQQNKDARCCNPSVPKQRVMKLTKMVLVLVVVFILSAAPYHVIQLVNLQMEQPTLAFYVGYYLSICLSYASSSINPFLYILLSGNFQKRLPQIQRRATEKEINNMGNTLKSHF
- measurement notes: SPA competition with [125I]-human MCH (Phe13, Tyr19) on receptor membranes
Bridges are numbered along the chain shown (N, C = ends). Where no end group is shown, it is not given here.
property label: IC50 (nM)

The following binders have reported results that may help.
DFDMLRCMLGRVYRPCAQV (disulfide 7-16, also called Ala^17) [SEQ. ID. NO. 54] | 5.1
DFDMLRCMLGRVYRPCWAV (disulfide 7-16, also called Ala^18) [SEQ. ID. NO. 55] | 9.5
DFDMLRCMLGRVFRPCYQV (disulfide 7-16, label prints Tyr^17 while the radioligand is Phe^13, Tyr^19; also called Phe^13, Tyr^17) [SEQ. ID. NO. 57] | 0.07
DFDMLRCMLGRVYRPCWQV (ligand, disulfide 7-16 (inferred), cyclic 19-amino acid peptide; also called hMCH; mammalian MCH) [human MCH (melanin-concentrating hormone), SEQ. ID. NO. 1] | 0.9
DFDMLRCMLGAVYRPCWQV (disulfide 7-16) [SEQ. ID. NO. 49] | 290

P. DFDMLRCMLGRAYRPCWQV (disulfide 7-16, also called Ala^12) [SEQ. ID. NO. 50]
Q. DFDMLRCMAGRVYRPCWQV (disulfide 7-16, also called Ala^9) [SEQ. ID. NO. 48]
Compare IC50: is it lower for P or for Q ? Answer with the label corresponding to your selection. Q
(Q: 9.5 nM, P: 25 nM)

a. DFDMLRCMLGRVYRACWQV (disulfide 7-16, also called Ala^15) [SEQ. ID. NO. 53]
b. DFDMLACMLGRVYRPCWQV (disulfide 7-16, also called Ala^6) [SEQ. ID. NO. 46]
c. DFAMLRCMLGRVYRPCWQV (disulfide 7-16, also called Ala^3) [SEQ. ID. NO. 43]
d. DFDMLRCMLGRVYAPCWQV (disulfide 7-16, also called Ala^14) [SEQ. ID. NO. 52]
Hi! Can you put these in order of IC50, lowest number first? Answer by naming the labels in the order asked. c, a, d, b
